A collection of compounds and their measured viability, T/C
test system: 415267-285-R-J2-PDC complex spheroid viability; test: Anticancer human tumor 415267-285-R-J2-PDC patient-derived breast carcinoma cell line growth inhibition [POLQ]; conditions: second compound 0.316 µM; first compound 0.0316 µM; stronger effect = lower value
ASSAY_ENDPOINT: viability, T/C (%)

{"columns": ["COMPOUND", "RESULT_VALUE"],
 "data": [
  ["CCc1cc2c(N3CCc4c(cc(Cn5ccnc5)cc4-c4cn(C)nc4C(F)(F)F)C3=O)ccnc2c(OC)n1 + COC1C(OC(N)=O)C(O)C(Oc2ccc3c(O)c(NC(=O)c4ccc(O)c(CC=C(C)C)c4)c(=O)oc3c2C)OC1(C)C", 89.8],
  ["O=c1[nH]cc(F)c(=O)[nH]1 + Nc1ccc(C#CCN(C(=O)Cc2ncc(C(F)(F)F)cc2C(F)(F)F)c2ccc(F)cc2)nn1", 93.6],
  ["C#Cc1c(F)ccc2cc(O)cc(-c3ncc4c(N5CC6CCC(C5)N6)nc(OCC56CCCN5CC(F)C6)nc4c3F)c12 (centres undefined) + Cc1cccc(N(C)C(=O)C2C(O)CCN2c2nc(C)cc(C(F)(F)F)c2C#N)c1", 112],
  ["CC(C)n1c(=O)n(C)c2cnc3cc(F)c(-c4ccc(OCCCN5CCCCC5)nc4)cc3c21 + COC1C(OC(N)=O)C(O)C(Oc2ccc3c(O)c(NC(=O)c4ccc(O)c(CC=C(C)C)c4)c(=O)oc3c2C)OC1(C)C", 96.8],
  ["O=c1[nH]cc(F)c(=O)[nH]1 + Cc1cccc(N(C)C(=O)C2C(O)CCN2c2nc(C)cc(C(F)(F)F)c2C#N)c1", 98.8],
  ["CCc1cc2c(N3CCc4c(cc(Cn5ccnc5)cc4-c4cn(C)nc4C(F)(F)F)C3=O)ccnc2c(OC)n1 + Nc1ccc(C#CCN(C(=O)Cc2ncc(C(F)(F)F)cc2C(F)(F)F)c2ccc(F)cc2)nn1", 94.2],
  ["COc1cc2cc(C(=O)CCC(=O)O)sc2cc1OC + Nc1ccc(C#CCN(C(=O)Cc2ncc(C(F)(F)F)cc2C(F)(F)F)c2ccc(F)cc2)nn1", 111],
  ["CC(C)n1c(=O)n(C)c2cnc3cc(F)c(-c4ccc(OCCCN5CCCCC5)nc4)cc3c21 + Cc1cccc(N(C)C(=O)C2C(O)CCN2c2nc(C)cc(C(F)(F)F)c2C#N)c1", 103],
  ["Cn1ncnc1[C@H]1c2n[nH]c(=O)c3cc(F)cc(c23)N[C@@H]1c1ccc(F)cc1 + COC1C(OC(N)=O)C(O)C(Oc2ccc3c(O)c(NC(=O)c4ccc(O)c(CC=C(C)C)c4)c(=O)oc3c2C)OC1(C)C", 107]
]}

###

Tested on: 415267-285-R-J2-PDC complex spheroid viability
Experiment: Anticancer human tumor 415267-285-R-J2-PDC cell line growth inhibition [POLQ];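 also: spheroids exposed to compounds for one week before readout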;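 as to viability, T/C: luminescence used as stand-in measure of viable cells; 100% = DMSO vehicle control viability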
Conditions: second compound 0.0316 µM; first compound 3.16 µM; stronger effect = lower value
Description: Multicellular complex tumor spheroid response to Polymerase (POL) inhibitors (novobiocin, ART-558, RP6685) in combination with a variety of drugs and investigational agents in selected tumor cell lines The POL inhibitors (novobiocin, ART-558, and RP6685) were evaluated both individually and in combination with standard of care and investigational anticancer small molecules within a complex spheroid model of solid tumors. . […]
A collection of molecules and their measured viability, T/C
ASSAY_ENDPOINT: viability, T/C (%)

{"columns": ["MOLECULE", "RESULT_VALUE"],
 "data": [
  ["CC1COCCN1c1cc(C2(O)CC3CCC(C2)O3)c2cnn(-c3ccn[nH]3)c2n1 (stereo unspecified) + Nc1ccc(C#CCN(C(=O)Cc2ncc(C(F)(F)F)cc2C(F)(F)F)c2ccc(F)cc2)nn1", 4.18],
  ["CCc1cc2c(N3CCc4c(cc(Cn5ccnc5)cc4-c4cn(C)nc4C(F)(F)F)C3=O)cc(C)nc2c(OC)n1 + COC1C(OC(N)=O)C(O)C(Oc2ccc3c(O)c(NC(=O)c4ccc(O)c(CC=C(C)C)c4)c(=O)oc3c2C)OC1(C)C", 76],
  ["O=c1[nH]cc(F)c(=O)[nH]1 + COC1C(OC(N)=O)C(O)C(Oc2ccc3c(O)c(NC(=O)c4ccc(O)c(CC=C(C)C)c4)c(=O)oc3c2C)OC1(C)C", 27.2],
  ["Nc1ccn(C2OC(CO)C(O)C2(F)F)c(=O)n1 (stereo unspecified) + COC1C(OC(N)=O)C(O)C(Oc2ccc3c(O)c(NC(=O)c4ccc(O)c(CC=C(C)C)c4)c(=O)oc3c2C)OC1(C)C", 5.96],
  ["CCCS(=O)(=O)Nc1ccc(F)c(C(=O)c2c[nH]c3ncc(-c4ccc(Cl)cc4)cc23)c1F + Nc1ccc(C#CCN(C(=O)Cc2ncc(C(F)(F)F)cc2C(F)(F)F)c2ccc(F)cc2)nn1", 90.6],
  ["CCc1cc2c(N3CCc4c(cc(Cn5ccnc5)cc4-c4cn(C)nc4C(F)(F)F)C3=O)ccnc2c(OC)n1 + Cc1cccc(N(C)C(=O)C2C(O)CCN2c2nc(C)cc(C(F)(F)F)c2C#N)c1", 92.8]
]}

###

system: 415267-285-R-J2-PDC complex spheroid viability; assay: Anticancer human tumor 415267-285-R-J2-PDC cell line growth inhibition [POLQ]; details: curve of first compound; second compound 0.0316 µM;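 also: spheroids exposed to compounds for one week before readout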
ASSAY_ENDPOINT: IC50

{"columns": ["COMPOUND", "TEST_SYSTEM", "RESULT_VALUE"],
 "data": [
  ["CCc1cc2c(N3CCc4c(cc(Cn5ccnc5)cc4-c4cn(C)nc4C(F)(F)F)C3=O)ccnc2c(OC)n1 + COC1C(OC(N)=O)C(O)C(Oc2ccc3c(O)c(NC(=O)c4ccc(O)c(CC=C(C)C)c4)c(=O)oc3c2C)OC1(C)C", "415267-285-R-J2-PDC complex spheroid viability", "> 10 µM"],
  ["CC(C)n1c(=O)n(C)c2cnc3cc(F)c(-c4ccc(OCCCN5CCCCC5)nc4)cc3c21 + Nc1ccc(C#CCN(C(=O)Cc2ncc(C(F)(F)F)cc2C(F)(F)F)c2ccc(F)cc2)nn1", "415267-285-R-J2-PDC complex spheroid viability", "> 10 µM"],
  ["CCc1c2c(nc3ccc(O)cc13)-c1cc3c(c(=O)n1C2)COC(=O)[C@]3(O)CC + Cc1cccc(N(C)C(=O)C2C(O)CCN2c2nc(C)cc(C(F)(F)F)c2C#N)c1", "415267-285-R-J2-PDC complex spheroid viability", "< 0.00316 µM"]
]}

###

Test system: 415267-285-R-J2-PDC complex spheroid viability
Assay: Anticancer human tumor 415267-285-R-J2-PDC cell line growth inhibition [POLQ];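 also: spheroids exposed to compounds for one week before readout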;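 as to viability, T/C: luminescence used as stand-in measure of viable cells; 100% = DMSO vehicle control viability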
Settings: second compound 10 µM; first compound 0.0316 µM; stronger effect = lower value
Protocol: Multicellular complex tumor spheroid response to Polymerase (POL) inhibitors (novobiocin, ART-558, RP6685) in combination with a variety of drugs and investigational agents in selected tumor cell lines The POL inhibitors (novobiocin, ART-558, and RP6685) were evaluated both individually and in combination with standard of care and investigational anticancer small molecules within a complex spheroid model of solid tumors. . […]
A collection of molecules and their measured viability, T/C

{"columns": ["MOLECULE", "viability, T/C / %"],
 "data": [
  ["C=CC(=O)N1CCN(c2nc(=O)n(-c3c(C)ccnc3C(C)C)c3nc(-c4c(O)cccc4F)c(F)cc23)C(C)C1 (centres undefined) + COC1C(OC(N)=O)C(O)C(Oc2ccc3c(O)c(NC(=O)c4ccc(O)c(CC=C(C)C)c4)c(=O)oc3c2C)OC1(C)C", 95.1],
  ["CCc1cc2c(N3CCc4c(cc(Cn5ccnc5)cc4-c4cn(C)nc4C(F)(F)F)C3=O)cc(C)nc2c(OC)n1 + Nc1ccc(C#CCN(C(=O)Cc2ncc(C(F)(F)F)cc2C(F)(F)F)c2ccc(F)cc2)nn1", 98.9],
  ["CNCc1ccc(-c2[nH]c3cc(F)cc4c3c2CCNC4=O)cc1 + COC1C(OC(N)=O)C(O)C(Oc2ccc3c(O)c(NC(=O)c4ccc(O)c(CC=C(C)C)c4)c(=O)oc3c2C)OC1(C)C", 104],
  ["CC1COCCN1c1cc(C2(S(C)(=N)=O)CC2)nc(-c2ccnc3[nH]ccc23)n1 (centres undefined) + COC1C(OC(N)=O)C(O)C(Oc2ccc3c(O)c(NC(=O)c4ccc(O)c(CC=C(C)C)c4)c(=O)oc3c2C)OC1(C)C", 97.5]
]}

###

A collection of compounds and their measured viability, T/C
tested on: 415267-285-R-J2-PDC complex spheroid viability; experiment: Anticancer human tumor 415267-285-R-J2-PDC cell line growth inhibition [POLQ]; details: second compound 10 µM; first compound 0.0316 µM; stronger effect = lower value;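 also: spheroids exposed to compounds for one week before readout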;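 as to viability, T/C: luminescence used as stand-in measure of viable cells; 100% = DMSO vehicle control viability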
ASSAY_ENDPOINT: viability, T/C (%)

{"columns": ["COMPOUND", "TEST_SYSTEM", "RESULT_VALUE"],
 "data": [
  ["O=c1[nH]cc(F)c(=O)[nH]1 + Nc1ccc(C#CCN(C(=O)Cc2ncc(C(F)(F)F)cc2C(F)(F)F)c2ccc(F)cc2)nn1", "415267-285-R-J2-PDC complex spheroid viability", 113],
  ["O=C(Nc1ccc(O)c(NS(=O)(=O)c2ccc(F)cc2)c1)c1ccc(-c2ccccc2)cc1 + Nc1ccc(C#CCN(C(=O)Cc2ncc(C(F)(F)F)cc2C(F)(F)F)c2ccc(F)cc2)nn1", "415267-285-R-J2-PDC complex spheroid viability", 102],
  ["COc1cc(C2c3cc4c(cc3C(OC3OC5COC(C)OC5C(O)C3O)C3COC(=O)C23)OCO4)cc(OC)c1O (centres undefined) + COC1C(OC(N)=O)C(O)C(Oc2ccc3c(O)c(NC(=O)c4ccc(O)c(CC=C(C)C)c4)c(=O)oc3c2C)OC1(C)C", "415267-285-R-J2-PDC complex spheroid viability", 101],
  ["O=c1[nH]cc(F)c(=O)[nH]1 + Cc1cccc(N(C)C(=O)C2C(O)CCN2c2nc(C)cc(C(F)(F)F)c2C#N)c1", "415267-285-R-J2-PDC complex spheroid viability", 92.1]
]}
